system.under.test: Human plasma kallikrein (Homo sapiens)
Construct: yields a heavy chain (371 amino acids) and a light chain (248 amino acids); The active site of plasma kallikrein is contained in the light chain
run.description: Plasma Kallikrein Assay
test.parameters: purified Human plasma kallikrein 0.5 nM, substrate Acetyl-K-P-R-AFC, HEPES pH 7.4; read-out: PKal IC50
Experimental: The effectiveness of a compound of the present invention as an inhibitor of plasma kallikrein can be determined using a relevant purified serine protease, and an appropriate synthetic substrate. The rate of hydrolysis of the chromogenic or fluorogenic substrate by the relevant serine protease was measured both in the absence and presence of compounds of the present invention. […] A decrease in the rate of fluorescence change in the presence of inhibitor is indicative of enzyme inhibition. […]
Reported values of IC50 for individual entries
Respond numerically; units are nM and should not be typed.

Fill in the blank: the reported IC50 of Nc1c(C(=O)N2CCC[C@@]3(C2)OC(=O)Nc2ccc(Cl)c(F)c23)cnn1-c1cccc(C(=O)O)c1 [Example 68] is ____. 13.5

Others:
Endpoint output: IC50 of COc1cc(F)ccc1-n1ncc(C(=O)N2CCC[C@@]3(C2)OC(=O)Nc2ccc(Cl)c(F)c23)c1N [Example 100] . Value? 9

What does the record list as IC50 for Nc1c(C(=O)N2CCC[C@@]3(C2)OC(=O)Nc2ccc(Cl)c(F)c23)cnn1C(C(F)(F)F)C1(F)CC1 (single isomer, unassigned) [Example 114] ? 2.8

====

system.under.test: human factor XIa (Homo sapiens, UniProt P03951)
Sequence (P03951 388-625 limits assumed): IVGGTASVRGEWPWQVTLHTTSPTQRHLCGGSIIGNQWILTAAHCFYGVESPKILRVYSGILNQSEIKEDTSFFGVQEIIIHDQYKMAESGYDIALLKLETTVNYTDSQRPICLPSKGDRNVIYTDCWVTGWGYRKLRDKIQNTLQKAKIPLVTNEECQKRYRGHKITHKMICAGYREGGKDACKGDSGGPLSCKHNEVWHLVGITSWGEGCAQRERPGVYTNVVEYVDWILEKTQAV
Sequence (P03951 19-387 partner limits assumed): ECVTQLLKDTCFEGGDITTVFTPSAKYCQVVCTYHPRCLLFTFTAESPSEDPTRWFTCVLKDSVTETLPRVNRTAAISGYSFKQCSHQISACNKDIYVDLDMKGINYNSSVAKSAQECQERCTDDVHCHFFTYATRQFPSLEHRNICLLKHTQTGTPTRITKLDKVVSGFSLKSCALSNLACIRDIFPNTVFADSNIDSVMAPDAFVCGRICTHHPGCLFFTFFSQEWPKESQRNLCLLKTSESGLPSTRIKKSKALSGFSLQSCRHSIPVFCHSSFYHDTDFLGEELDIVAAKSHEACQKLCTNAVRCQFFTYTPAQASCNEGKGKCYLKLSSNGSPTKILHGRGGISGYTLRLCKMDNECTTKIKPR
Below, each of the compounds is paired with its reported IC50 value.
Respond with the bare value in nM.

These solved cases illustrate the format of a correct answer.
Please report the recorded IC50 for Nc1c(C(=O)N2CCC[C@@]3(C2)OC(=O)Nc2ccc(Cl)c(F)c23)cnn1-c1ccc(N2CCOC2=O)cc1 . 4720

Which IC50 value belongs to CC1(c2ccccc2-n2ncc(C(=O)N3CCC[C@@]4(C3)OC(=O)Nc3ccc(Cl)c(F)c34)c2N)CC1 ? 219

// returns reported IC50 for input Nc1c(C(=O)N2CCC[C@@]3(C2)OC(=O)Nc2ccc(Cl)c(F)c23)cnn1CC1CC1 582

Recorded IC50 for Nc1c(C(=O)N2CCC[C@@]3(C2)OC(=O)Nc2ccc(Cl)c(F)c23)cnn1CCN1CCOCC1 , please? 3180

Quick one: IC50 for Nc1c(C(=O)N2CCC[C@@]3(C2)OC(=O)Nc2ccc(Cl)c(F)c23)cnn1CC(F)(F)F ? 408

// query IC50 value for entry Nc1c(C(=O)N2CCC[C@@]3(C2)OC(=O)Nc2ccc(Cl)c(F)c23)cnn1Cc1ccncc1 268

# evaluate next
Record request: IC50 value, item Nc1c(C(=O)N2CCC[C@@]3(C2)OC(=O)Nc2ccc(Cl)c(F)c23)cnn1-c1ccccc1 4140

====

system.under.test: Human plasma kallikrein (Homo sapiens)
Construct: yields a heavy chain (371 amino acids) and a light chain (248 amino acids); The active site of plasma kallikrein is contained in the light chain; purchased Enzyme Research Laboratories
run.description: Plasma Kallikrein Assay
Format: biochemical
test.parameters: purified Human plasma kallikrein 0.5 nM, substrate Acetyl-K-P-R-AFC, HEPES pH 7.4; read-out: PKal IC50
experimental.readout: log10 of IC50 (log10 of the value in µM)
The figures below represent log10 of IC50, where IC50 is stated in µM.

Which measured log10 of IC50 belongs to Nc1c(C(=O)N2CCC[C@@]3(C2)OC(=O)Nc2ccc(Cl)c(F)c23)cnn1C1CCCCC1 , tested on Human plasma kallikrein (Homo sapiens)? -1.80

Request - read-out log10 of IC50 | tested on Human plasma kallikrein (Homo sapiens) | molecule CCC(c1ccccc1)n1ncc(C(=O)N2CCC[C@@]3(C2)OC(=O)Nc2ccc(Cl)c(F)c23)c1N (single isomer, unassigned) [Example 117] -3.05

Value wanted: log10 of IC50 (Human plasma kallikrein (Homo sapiens)) of entry Nc1c(C(=O)N2CCC[C@@]3(C2)OC(=O)Nc2ccc(Cl)c(F)c23)cnn1C12CC(C1)C2 -1.54

Please provide the recorded log10 of IC50 for CCC(C1CCOCC1)n1ncc(C(=O)N2CCC[C@@]3(C2)OC(=O)Nc2ccc(Cl)c(F)c23)c1N (single isomer, unassigned) [Example 113] , tested on Human plasma kallikrein (Homo sapiens). -3.22

Please tell me: log10 of IC50 of Nc1c(C(=O)N2CCC[C@@]3(C2)OC(=O)Nc2ccc(Cl)c(F)c23)cnn1C1(C(F)(F)F)CC(F)(F)C1 , system Human plasma kallikrein (Homo sapiens)? -2.04

For the record Nc1c(C(=O)N2CCC[C@@]3(C2)OC(=O)Nc2ccc(Cl)c(F)c23)cnn1-c1ccccc1Cl , what value of log10 of IC50 is listed for Human plasma kallikrein (Homo sapiens)? -1.55

Hi! What's the reported log10 of IC50 for CC1(n2ncc(C(=O)N3CCC[C@@]4(C3)OC(=O)Nc3ccc(Cl)c(F)c34)c2N)CCS(=O)(=O)C1 (single isomer, unassigned) [Example 118] on Human plasma kallikrein (Homo sapiens)? -1.62

Provide value of log10 of IC50 for this record tested with Human plasma kallikrein (Homo sapiens): CCC(n1ncc(C(=O)N2CC(C)(C)C[C@@]3(C2)OC(=O)Nc2ccc(Cl)c(F)c23)c1N)C(F)(F)F (single isomer, unassigned) [Example 130] -2.80

Query log10 of IC50 on Human plasma kallikrein (Homo sapiens) for Nc1c(C(=O)N2CCC[C@@]3(C2)OC(=O)Nc2ccc(Cl)c(F)c23)cnn1C1(C(F)(F)F)CC1 -2.08

====

system.under.test: Human plasma kallikrein (Homo sapiens, UniProt P03952)
Construct: yields a heavy chain (371 amino acids) and a light chain (248 amino acids); The active site of plasma kallikrein is contained in the light chain
Sequence (P03952 391-638 limits assumed): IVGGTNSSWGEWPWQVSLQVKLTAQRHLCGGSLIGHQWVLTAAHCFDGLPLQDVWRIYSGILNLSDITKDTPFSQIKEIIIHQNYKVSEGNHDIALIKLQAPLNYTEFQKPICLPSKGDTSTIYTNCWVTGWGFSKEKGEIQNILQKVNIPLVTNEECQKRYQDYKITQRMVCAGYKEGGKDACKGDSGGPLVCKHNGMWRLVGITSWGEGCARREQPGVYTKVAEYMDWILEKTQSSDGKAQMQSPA
Sequence (P03952 20-390 partner limits assumed): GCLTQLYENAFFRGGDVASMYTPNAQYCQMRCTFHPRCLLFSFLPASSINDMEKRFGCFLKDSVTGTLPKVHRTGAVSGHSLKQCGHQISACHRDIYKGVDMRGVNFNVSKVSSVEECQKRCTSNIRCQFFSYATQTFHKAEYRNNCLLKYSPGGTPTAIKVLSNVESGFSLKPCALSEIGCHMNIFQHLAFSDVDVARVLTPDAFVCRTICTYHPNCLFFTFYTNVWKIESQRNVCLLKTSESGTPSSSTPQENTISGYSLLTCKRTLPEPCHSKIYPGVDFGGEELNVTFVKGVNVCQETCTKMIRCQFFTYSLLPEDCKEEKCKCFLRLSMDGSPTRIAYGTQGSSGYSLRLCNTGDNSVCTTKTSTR
run.description: Plasma Kallikrein Assay
test.parameters: purified Human plasma kallikrein 0.5 nM, substrate Acetyl-K-P-R-AFC, HEPES pH 7.4; read-out: PKal IC50
IC50 for assorted compounds
Please reply with the bare figure in nM and do not write the unit itself.

Look up IC50: CC(C1CC1)(n1ncc(C(=O)N2CCC[C@@]3(C2)OC(=O)Nc2ccc(Cl)c(F)c23)c1N)C(F)(F)F (single isomer, unassigned) [Example 127] 6.8

// query IC50 value for entry Nc1c(C(=O)N2CCC[C@@]3(C2)OC(=O)Nc2ccc(Cl)c(F)c23)cnn1Cc1cnccn1 3.4

Would you kindly look at the next entry?
What value of IC50 has been recorded for this entry: Nc1c(C(=O)N2CCC[C@@]3(C2)OC(=O)Nc2ccc(Cl)c(F)c23)cnn1CC1CCOCC1 8.1

====

Entries and their measured pIC50 follow.
system.under.test: Human plasma kallikrein (Homo sapiens)
Construct: yields a heavy chain (371 amino acids) and a light chain (248 amino acids); The active site of plasma kallikrein is contained in the light chain
run.description: Plasma Kallikrein Assay
test.parameters: purified Human plasma kallikrein 0.5 nM, substrate Acetyl-K-P-R-AFC, HEPES pH 7.4; read-out: PKal IC50
Hey, just a heads up that pIC50 is the negative log base 10 of the concentration in molar.

Human plasma kallikrein (Homo sapiens) / pIC50 / CCc1ccccc1-n1ncc(C(=O)N2CCC[C@@]3(C2)OC(=O)Nc2ccc(Cl)c(F)c23)c1N [Example 80] : value? 7.94

Any idea what pIC50 came out for Nc1c(C(=O)N2CCC[C@@]3(C2)OC(=O)Nc2ccc(Cl)c(F)c23)cnn1Cc1cccnc1 [Example 55] on Human plasma kallikrein (Homo sapiens)? 8.70

Param readout = pIC50; param system = Human plasma kallikrein (Homo sapiens); param query = Nc1c(C(=O)N2CCC[C@@]3(C2)OC(=O)Nc2ccc(Cl)c(F)c23)cnn1-c1cccc(F)c1OC(F)F [Example 107] ; response: value 7.82

Then this compound:
Form field: pIC50 recorded for Nc1c(C(=O)N2CCC[C@@]3(C2)OC(=O)Nc2ccc(Cl)c(F)c23)cnn1Cc1ccc(F)c(F)c1 [Example 33] with Human plasma kallikrein (Homo sapiens) (enter value) 9.00

====

Here the recorded pIC50 is given for each entry.
system.under.test: Human plasma kallikrein (Homo sapiens)
Construct: yields a heavy chain (371 amino acids) and a light chain (248 amino acids); The active site of plasma kallikrein is contained in the light chain
run.description: Plasma Kallikrein Assay
test.parameters: purified Human plasma kallikrein 0.5 nM, substrate Acetyl-K-P-R-AFC, HEPES pH 7.4; read-out: PKal IC50
Scale: negative log10 of molar concentration, which is what pIC50 denotes.

Sample answers from the record:
What value of measured pIC50 is listed for CCC(C1CCOCC1)n1ncc(C(=O)N2CCC[C@@]3(C2)OC(=O)Nc2ccc(Cl)c(F)c23)c1N (single isomer, unassigned) [Example 112] ? 8.66

Sample Nc1c(C(=O)N2CCC[C@@]3(C2)OC(=O)Nc2ccc(Cl)c(F)c23)cnn1-c1ccccc1OC1CCC1 — what was its pIC50? 8.10

So what does the record say about pIC50 for Nc1c(C(=O)N2CCC[C@@]3(C2)OC(=O)Nc2ccc(Cl)c(F)c23)cnn1-c1cccc(Cl)c1 ? 7.18

# lookup: pIC50 of Nc1c(C(=O)N2CCC[C@@]3(C2)OC(=O)Nc2ccc(Cl)c(F)c23)cnn1-c1ccccc1C(F)(F)F 7.76

Data request, read-out pIC50, for COC(=O)c1ccc(-n2ncc(C(=O)N3CCC[C@@]4(C3)OC(=O)Nc3ccc(Cl)c(F)c34)c2N)c(OC)c1 7.88

More entries:
Query: pIC50; subject: Cc1ccccc1-n1ncc(C(=O)N2CCC[C@@]3(C2)OC(=O)Nc2ccc(Cl)c(F)c23)c1N 7.55

Query (molecule): Nc1c(C(=O)N2CCC[C@@]3(C2)OC(=O)Nc2ccc(Cl)c(F)c23)cnn1CC1CCCCC1 ; field requested: pIC50 8.70

Which pIC50 reading was recorded for the molecule Cc1cccc(Cn2ncc(C(=O)N3CCC[C@@]4(C3)OC(=O)Nc3ccc(Cl)c(F)c34)c2N)c1 ? 9.15

For the molecule Nc1c(C(=O)N2CCC[C@@]3(C2)OC(=O)Nc2ccc(Cl)c(F)c23)cnn1CC(F)F , what pIC50 is on record? 7.77

Query (molecule): Cc1ccc(Cn2ncc(C(=O)N3CCC[C@@]4(C3)OC(=O)Nc3ccc(Cl)c(F)c34)c2N)cc1 ; field requested: pIC50 9.30

For the molecule shown here, Nc1c(C(=O)N2CCC[C@@]3(C2)OC(=O)Nc2ccc(Cl)c(F)c23)cnn1-c1ccccc1OC(F)F , give the reported pIC50. 8.18

Which pIC50 is listed for Nc1c(C(=O)N2CCC[C@@]3(C2)OC(=O)Nc2ccc(Cl)c(F)c23)cnn1CCC(F)(F)F ? 7.73

I would be grateful if you could share the reported pIC50 for Nc1c(C(=O)N2CCC[C@@]3(C2)OC(=O)Nc2ccc(Cl)c(F)c23)cnn1-c1ccccc1OCC(F)(F)F . 7.88

pIC50 lookup needed for Nc1c(C(=O)N2CCC[C@@]3(C2)OC(=O)Nc2ccc(Cl)c(F)c23)cnn1Cc1ccccc1Cl , thanks. 8.96

pIC50 for CC(C)Cn1ncc(C(=O)N2CCC[C@@]3(C2)OC(=O)Nc2ccc(Cl)c(F)c23)c1N ? 8.10

Cited source for all entries: patent US12679848B2
